Reported ED0 is given for each of the following molecules.
System: Zea mays
Run description: Phytotoxicity against Zea mays (maize) assessed as induction of plant damage applied through foliar spraying
Type: organism-based
Test context: in vivo, other
Property label: ED0 (gAi/ha)

> print(dat)
                                   molecule  assayed.system  value.reported
1  O=C1C[C@H]2C[C@H]2C(=O)C1C(=O)c1ccc(Cl)cc1[N+](=O)[O-] (relative stereo)        Zea mays              16
2  CS(=O)(=O)c1ccc(C(=O)C2C(=O)C[C@H]3C[C@H]3C2=O)c(Cl)c1 (relative stereo)        Zea mays             125
3  CSCC1CC(=O)C(C(=O)c2ccc(Cl)cc2[N+](=O)[O-])C(=O)C1 (centres undefined)        Zea mays             125
4  O=C1CC2CCCC2C(=O)C1C(=O)c1ccc(Cl)cc1[N+](=O)[O-] (centres undefined)        Zea mays              63
5  CC1CC(=O)C(C(=O)c2ccc(Cl)cc2[N+](=O)[O-])C(=O)C1C (centres undefined)        Zea mays             125
6  COc1ccc(C(=O)C2C(=O)C[C@H]3C[C@H]3C2=O)c([N+](=O)[O-])c1 (relative stereo)        Zea mays              31
7  COCC1CC(=O)C(C(=O)c2ccc(Cl)cc2[N+](=O)[O-])C(=O)C1 (centres undefined)        Zea mays             125
8  CCCCC1CC(=O)C(C(=O)c2ccc(Cl)cc2[N+](=O)[O-])C(=O)C1 (centres undefined)        Zea mays            1000
9  CCCC1CC(=O)C(C(=O)c2ccc(Cl)cc2[N+](=O)[O-])C(=O)C1 (centres undefined)        Zea mays             125

---

Test system: Digitaria sanguinalis
Run description: Herbicidal activity against Digitaria sanguinalis (hairy crabgrass) assessed as induction of plant damage applied through foliar spraying
Format: functional
Reported ED80 is given for each of the following compounds.
Property label: ED80 (gAi/ha)

> print(dat)
                                    compound  property.label  cmp  value.reported
 1  CCCCC1CC(=O)C(C(=O)c2ccc(Cl)cc2[N+](=O)[O-])C(=O)C1 (centres undefined)            ED80    >            2000
 2  COCC1CC(=O)C(C(=O)c2ccc(Cl)cc2[N+](=O)[O-])C(=O)C1 (centres undefined)            ED80    =             500
 3  COc1ccc(C(=O)C2C(=O)C[C@H]3C[C@H]3C2=O)c([N+](=O)[O-])c1 (relative stereo)            ED80    =             125
 4  CC1CC(=O)C(C(=O)c2ccc(Cl)cc2[N+](=O)[O-])C(=O)C1 (centres undefined)            ED80    =              31
 5  CCCC1CC(=O)C(C(=O)c2ccc(Cl)cc2[N+](=O)[O-])C(=O)C1 (centres undefined)            ED80    =             500
 6  CS(=O)(=O)c1ccc(C(=O)C2C(=O)C[C@H]3C[C@H]3C2=O)c([N+](=O)[O-])c1 (relative stereo)            ED80    =             125
 7  Cc1cc(S(C)(=O)=O)ccc1C(=O)C1C(=O)C[C@H]2C[C@H]2C1=O (relative stereo)            ED80    =             250
 8  O=C1C[C@H]2C[C@H]2C(=O)C1C(=O)c1ccc(Cl)cc1[N+](=O)[O-] (relative stereo)            ED80    =              63
 9  CSc1ccc(C(=O)C2C(=O)C[C@H]3C[C@H]3C2=O)c([N+](=O)[O-])c1 (relative stereo)            ED80    =              63
10  CS(=O)(=O)c1ccc(C(=O)C2C(=O)CCCC2=O)c(Cl)c1            ED80    =             125
11  O=C1CC2CCCCC2C(=O)C1C(=O)c1ccc(Cl)cc1[N+](=O)[O-] (centres undefined)            ED80    =             500
12  O=C1C[C@H]2C[C@H]2C(=O)C1C(=O)c1ccc(C(F)(F)F)cc1[N+](=O)[O-] (relative stereo)            ED80    =              63
13  CC1CCC(=O)C(C(=O)c2ccc(Cl)cc2[N+](=O)[O-])C1=O (centres undefined)            ED80    =              63
14  CS(=O)(=O)c1ccc(C(=O)C2C(=O)C[C@H]3C[C@H]3C2=O)c(Cl)c1 (relative stereo)            ED80    =             125
15  O=C1CC2CCCC2C(=O)C1C(=O)c1ccc(Cl)cc1[N+](=O)[O-] (centres undefined)            ED80    =             250
16  CC1CC(=O)C(C(=O)c2ccc(Cl)cc2[N+](=O)[O-])C(=O)C1C (centres undefined)            ED80    =              31
17  O=C1CCCC(=O)C1C(=O)c1ccc(Cl)cc1[N+](=O)[O-]            ED80    =             250
18  CC1(C)CC(=O)C(C(=O)c2ccc(Cl)cc2[N+](=O)[O-])C(=O)C1            ED80    =             250
19  CSCC1CC(=O)C(C(=O)c2ccc(Cl)cc2[N+](=O)[O-])C(=O)C1 (centres undefined)            ED80    =             250

---

Tested on: Zea mays
Run description: Phytotoxicity against Zea mays (maize) assessed as induction of plant damage applied through foliar spraying
Format: organism-based
Test context: in vivo, other
Reported log10 ED0 is given for each of the following molecules.
Property label: log10 ED0 (log10 of the value in gAi/ha)

> print(dat)
                                    molecule  property.label  value.reported
 1  CC1(C)CC(=O)C(C(=O)c2ccc(Cl)cc2[N+](=O)[O-])C(=O)C1       log10 ED0            2.70
 2  Cc1cc(S(C)(=O)=O)ccc1C(=O)C1C(=O)C[C@H]2C[C@H]2C1=O (relative stereo)       log10 ED0            2.40
 3  O=C1CC2CCCCC2C(=O)C1C(=O)c1ccc(Cl)cc1[N+](=O)[O-] (stereo not given)       log10 ED0            2.70
 4  CC1CC(=O)C(C(=O)c2ccc(Cl)cc2[N+](=O)[O-])C(=O)C1 (stereo not given)       log10 ED0            1.80
 5  CS(=O)(=O)c1ccc(C(=O)C2C(=O)CCCC2=O)c(Cl)c1 [SULCOTRIONE]       log10 ED0            2.40
 6  O=C1CCCC(=O)C1C(=O)c1ccc(Cl)cc1[N+](=O)[O-]       log10 ED0            2.70
 7  CSc1ccc(C(=O)C2C(=O)C[C@H]3C[C@H]3C2=O)c([N+](=O)[O-])c1 (relative stereo)       log10 ED0            2.10
 8  CS(=O)(=O)c1ccc(C(=O)C2C(=O)C[C@H]3C[C@H]3C2=O)c([N+](=O)[O-])c1 (relative stereo)       log10 ED0            2.40
 9  O=C1C[C@H]2C[C@H]2C(=O)C1C(=O)c1ccc(C(F)(F)F)cc1[N+](=O)[O-] (relative stereo)       log10 ED0            1.49
10  CC1CCC(=O)C(C(=O)c2ccc(Cl)cc2[N+](=O)[O-])C1=O (stereo not given)       log10 ED0            2.10
